Numbers sourced from patent US11034650B2.

- Tested on: Pasteurella multocida PM 10775 (080130003051, BRD field isolate)
- measurement_protocol: MIC, broth-microdilution (CLSI VET01-A4), strain PM 10775
- Assay type: cell-based
- experimental_setup: Pasteurella multocida strain PM 10775, broth-microdilution; unit assumed
// values below are reported MIC PM 10775
measured_attribute: MIC PM 10775

[[record]]
molecule = "C=CCNCc1ccc(C#Cc2ccc(C(=O)NC(C(=O)NO)C(C)(C)[N+](=O)[O-])cc2)cc1 (stereo not shown) [Compound 280]"
measured_attribute = "MIC PM 10775"
observed = "≤ 0.1 µg/mL"

[[record]]
molecule = "CON=C(C)[C@H](NC(=O)c1ccc(C#Cc2ccc(CNCc3ccccc3)cc2)cc1)C(=O)NO [Compound 382]"
measured_attribute = "MIC PM 10775"
observed = "0.4 µg/mL"

[[record]]
molecule = "CC(C)([C@H](NC(=O)c1ccc(C#Cc2ccc(CNCc3ccncc3)nc2)cc1)C(=O)NO)S(C)(=O)=O [Compound 371]"
measured_attribute = "MIC PM 10775"
observed = "≤ 0.1 µg/mL"

[[record]]
molecule = "CC[C@H](C)[C@H](NC(=O)c1ccc(C#Cc2ccc(CNCc3ccncc3)cc2)cc1)C(=O)NO [Compound 132]"
measured_attribute = "MIC PM 10775"
observed = "≤ 0.1 µg/mL"

[[record]]
molecule = "CC(C)[C@H](NC(=O)c1ccc(C#Cc2ccc(CNCC3CCCO3)cc2)cc1)C(=O)NO (stereo partly shown) [Compound 200]"
measured_attribute = "MIC PM 10775"
observed = "≤ 0.1 µg/mL"

[[record]]
molecule = "CC(C)(C(NC(=O)c1ccc(C#Cc2ccc(CNCc3ccco3)cc2)cc1)C(=O)NO)[N+](=O)[O-] (stereo not shown) [Compound 287]"
measured_attribute = "MIC PM 10775"
observed = "≤ 0.1 µg/mL"

[[record]]
molecule = "CSC(C)(C)[C@H](NC(=O)c1ccc(C#Cc2ccc(CNCc3ccncc3)nc2)cc1)C(=O)NO [Compound 341]"
measured_attribute = "MIC PM 10775"
observed = "0.2 µg/mL"

[[record]]
molecule = "CC[C@H](C)[C@H](NC(=O)c1ccc(C#Cc2ccc(CNCc3ccc(Cl)cc3)cc2)cc1)C(=O)NO [Compound 128]"
measured_attribute = "MIC PM 10775"
observed = "0.4 µg/mL"

[[record]]
molecule = "COc1ccc(CNCc2ccc(C#Cc3ccc(C(=O)N[C@H](C(=O)NO)C(C)C)cc3)cc2)cc1 [Compound 107]"
measured_attribute = "MIC PM 10775"
observed = "≤ 0.1 µg/mL"

[[record]]
molecule = "CC(C)(C(NC(=O)c1ccc(C#Cc2ccc(CNCc3ccc(C(F)(F)F)cc3)cc2)cc1)C(=O)NO)[N+](=O)[O-] (stereo not shown) [Compound 279]"
measured_attribute = "MIC PM 10775"
observed = "0.4 µg/mL"

[[record]]
molecule = "CC[C@H](C)[C@H](NC(=O)c1ccc(C#Cc2ccc(CNC3CCCC3)cc2)cc1)C(=O)NO [Compound 196]"
measured_attribute = "MIC PM 10775"
observed = "≤ 0.1 µg/mL"

[[record]]
molecule = "CC(C)([C@H](NC(=O)c1ccc(C#Cc2ccc(CNCc3ccncc3)s2)cc1)C(=O)NO)S(C)(=O)=O [Compound 317]"
measured_attribute = "MIC PM 10775"
observed = "≤ 0.1 µg/mL"

[[record]]
molecule = "COCCNCc1ccc(C#Cc2ccc(C(=O)N[C@H](C(=O)NO)C(C)(C)S(C)(=O)=O)cc2)s1 [C.313]"
measured_attribute = "MIC PM 10775"
observed = "≤ 0.1 µg/mL"

